Tested on: mice
Set-up: species or system male Swiss albino mice
measurement-conditions: mouse, in vivo, po
assay-readout: Behavior: dose at which sedation (SED) is observed (mg/kg)
Give the value in mg/kg but do not write mg/kg after it.

Ask: Sample NC(=O)CNC(c1ccccc1)c1ccc(Cl)cc1 (stereo not shown) [Compound 1] — what was its Behavior: dose at which sedation (SED) is observed?
Result: 1000

Ask: Quick one: Behavior: dose at which sedation (SED) is observed of Cc1ccc(C(NCC(N)=O)c2ccccc2)cc1 (stereo not shown) [Compound 3] ?
Result: 1000

Ask: Query (compound): Cc1cccc(C(NCC(N)=O)c2ccccc2)c1 (stereo not shown) [Compound 5] ; field requested: Behavior: dose at which sedation (SED) is observed
Result: 1000

Ask: Behavior: dose at which sedation (SED) is observed lookup needed for Cc1ccc(C(NCC(N)=O)c2ccccc2)cc1C (stereo not shown) [Compound 6] , thanks.
Result: 3000

Ask: Which value of Behavior: dose at which sedation (SED) is observed has been reported for NC(=O)CNC(c1ccccc1)c1ccc(Br)cc1 (stereo not shown) [Compound 10] in the records?
Result: 1000

Ask: Return reported Behavior: dose at which sedation (SED) is observed; argument: Cc1ccccc1C(NCC(N)=O)c1ccccc1 (stereo not shown) [Compound 4]
Result: 300

Ask: May I ask what Behavior: dose at which sedation (SED) is observed has been recorded for NC(=O)CNC(c1ccc(F)cc1)c1ccccc1F (stereo not shown) [Compound 11] ?
Result: 100
